Assay target: human M2 receptor (Homo sapiens)
Condition info: Receptor activity EC50, allosteric potency at EC20 acetylcholine; M2-GIRK1/4 reporter cells; in some cases mean of two or more determinations
Experimental endpoint: EC50 (nM)

CC(NC(=O)c1cn(-c2ccc(F)cc2F)c2nc(N3C[C@@H](O)CC3=O)ccc2c1=O)C(F)(F)C(F)(F)F (single isomer, unassigned) [Example 624] | 140

(I) CC[C@H](NC(=O)c1cn(-c2c(F)cccc2F)c2nc(N3CC4CC4(O)C3)ccc2c1=O)C(F)(F)F (mixture of isomers)
(II) CN(C[C@H](O)CO)c1ccc2c(=O)c(C(=O)N[C@@H](C3CC3)C(F)(F)F)cn(-c3c(F)cc(F)cc3F)c2n1
Endpoint returns whichever of I and II has the numerically higher EC50. Answer by stating the label of the chosen item.
II
(II: 106 nM, I: 24 nM)

(P) CC1(NC(=O)c2cn(-c3c(F)cc(F)cc3F)c3nc(N4CCNC4=O)ccc3c2=O)CC(F)(F)C1
(Q) CC(C)C(NC(=O)c1cn(-c2c(F)cc(F)cc2F)c2nc(N3C[C@@H](O)[C@H](O)C3)ccc2c1=O)C(C)C
Endpoint returns whichever of P and Q has the numerically higher EC50. Answer by stating the label of the chosen item.
P

(1) C[C@H](NC(=O)c1cn(-c2c(F)cc(F)cc2F)c2nc(N3C[C@@H](O)[C@H](O)C3)ccc2c1=O)C1CC1
(2) O=C(N[C@H](C1CC1)C(F)(F)F)c1cn(-c2c(F)cc(F)cc2Cl)c2nc(N3CC4CC4(O)C3)ccc2c1=O (mixture of isomers)
Form: Entry with minimum EC50 (choose one): 1 / 2 Answer by stating the label of the chosen item.
2
(2: 6 nM, 1: 73 nM)

(a) CC[C@H](NC(=O)c1cn(-c2c(F)cc(F)cc2F)c2nc(N3CC(CNC(C)=O)CC3=O)ccc2c1=O)C(F)(F)F (stereo partly shown)
(b) CC[C@H](NC(=O)c1cn(-c2c(F)cc(F)cc2F)c2nc(N3CC(O)C4(CC4)C3)ccc2c1=O)C(F)(F)F (mixture of isomers) [Example 619]
(c) CC[C@@H](NC(=O)c1cn(-c2c(F)cc(F)cc2Cl)c2nc(N3CC4CC4(O)C3)ccc2c1=O)C(F)(F)F (stereo partly shown)
(d) O=C(N[C@@H](C1CC1)C(F)(F)F)c1cn(-c2c(F)cccc2F)c2nc(N3CCNC3=O)ccc2c1=O
// ascending sort on recorded EC50 Output the labels ranked as instructed.
c, b, d, a

(a) CC[C@H](NC(=O)c1cn(-c2c(F)cc(F)cc2F)c2nc(N3CC(O)C4(CC4)C3)ccc2c1=O)C(F)(F)F (single isomer, unassigned) [Example 620]
(b) CC(C)C(NC(=O)c1cn(-c2c(F)cc(F)cc2F)c2nc(N3CCNC3=O)ccc2c1=O)C(F)(F)F (racemic) [Example 537]
Endpoint returns whichever of a and b has the numerically higher EC50. Answer by stating the label of the chosen item.
a

----------
Assay target: human M2 receptor (Homo sapiens)
Condition info: boosting of the acetylcholine effect at EC20 acetylcholine concentration; M2-GIRK1/4 reporter cells
Experimental endpoint: Efficiency (%)

CC(NC(=O)c1cn(-c2c(F)cc(F)cc2F)c2nc(N3C[C@@H](O)CC3=O)ccc2c1=O)C(F)(F)C(F)(F)F (single isomer, unassigned) | 97.0
CCC(COC(F)(F)F)NC(=O)c1cn(-c2c(F)cc(F)cc2F)c2nc(N3CCNC3=O)ccc2c1=O (racemic) [Example 611] | 90.0
O=C(NC12CC(C1)C2)c1cn(-c2c(F)cc(F)cc2F)c2nc(N3CC(O)C4(CC4)C3)ccc2c1=O (racemic) | 89.5
O=C(NC(c1ccccc1Cl)C(F)(F)F)c1cn(-c2c(F)cc(F)cc2F)c2nc(N3CCNC3=O)ccc2c1=O (racemic) | 99.5
CC(NC(=O)c1cn(-c2c(F)cc(F)cc2F)c2nc(N3CCNC3=O)ccc2c1=O)C(F)(F)C(F)(F)F (racemic) [Example 542] | 98.5
CC[C@H](NC(=O)c1cn(-c2c(F)cc(F)cc2Cl)c2nc(N3CCC(C)C3=O)ccc2c1=O)C(F)(F)F (single isomer, unassigned) [Example 425] | 90.5

----------
Assay target: human M2 receptor (Homo sapiens)
Sequence (P08172 1-466): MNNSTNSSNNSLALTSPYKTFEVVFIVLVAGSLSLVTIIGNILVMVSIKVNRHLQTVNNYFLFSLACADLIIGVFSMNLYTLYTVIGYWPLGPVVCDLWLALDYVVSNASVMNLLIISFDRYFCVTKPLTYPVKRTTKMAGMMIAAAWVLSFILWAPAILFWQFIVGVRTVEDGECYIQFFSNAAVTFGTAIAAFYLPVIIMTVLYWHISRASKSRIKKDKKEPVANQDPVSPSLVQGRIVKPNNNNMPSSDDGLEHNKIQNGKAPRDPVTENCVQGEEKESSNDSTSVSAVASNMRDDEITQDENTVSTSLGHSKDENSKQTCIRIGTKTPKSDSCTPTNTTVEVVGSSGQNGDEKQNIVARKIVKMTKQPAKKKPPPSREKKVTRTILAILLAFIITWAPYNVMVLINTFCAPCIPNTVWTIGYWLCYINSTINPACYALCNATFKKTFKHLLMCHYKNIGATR
Condition info: Receptor activity EC50, M2-GIRK1/4 activation test, acetylcholine at EC20; allosteric potency; in some cases mean values from two or more determinations
pEC50: −log10 of the molar value.
Experimental endpoint: pEC50

CN(C)c1ccc2c(=O)c(C(=O)NC34CCC(CC3)CC4)cn(-c3ccc(F)cc3Cl)c2n1 | 8.00
CC[C@@H](NC(=O)c1cn(-c2c(F)cccc2F)c2nc(N3CCC(O)C3=O)ccc2c1=O)C(F)(F)F (single isomer, unassigned) [Example 294] | 7.19
C[C@H](NC(=O)c1cn(-c2c(F)cccc2F)c2nc(N3CC4CC4(O)C3)ccc2c1=O)C(F)(F)F (single isomer, unassigned) [Example 313] | 7.15
O=C(NC(c1ccccc1Cl)C(F)(F)F)c1cn(-c2ccc(F)cc2F)c2nc(N3CC[C@H](F)C3)ccc2c1=O (stereo partly drawn) | 7.44

(1) N#CN1CCCN(c2ccc3c(=O)c(C(=O)N[C@@H](C4CC4)C(F)(F)F)cn(-c4c(F)cc(F)cc4F)c3n2)C1=O
(2) O=C(NC(c1c(F)cccc1F)C(F)(F)F)c1cn(-c2ccc(F)cc2F)c2nc(N3C[C@@H](O)CC3=O)ccc2c1=O (single isomer, unassigned) [Example 246]
Form: Entry with minimum pEC50 (choose one): 1 / 2 Answer by stating the label of the chosen item.
1
(1: 7.34, 2: 7.64)

----------
Assay target: human M2 receptor (Homo sapiens)
Assay type: cell-based
Condition info: shift in the acetylcholine dose-response curve (Allosteric EC50 shift, GraphPad PRISM); α >1 = positive cooperativity
Experimental endpoint: Cooperativity (alpha factor)

Before answering, review these 5 worked examples.
O=C(N[C@@H](C1CC1)C(F)(F)F)c1cn(-c2c(F)cc(F)cc2Cl)c2nc(N3C[C@@H](O)CC3=O)ccc2c1=O | 24
CC[C@@H](NC(=O)c1cn(-c2ccc(F)cc2F)c2nc(N3CCC(C)(O)C3=O)ccc2c1=O)C(F)(F)F (mixture of isomers) | 16
O=C(NC12CC3CC(CC(C3)C1)C2)c1cn(-c2ccc(F)cc2F)c2nc(N3CCC(O)(O)C(F)(F)C3)ccc2c1=O | 15
CC[C@@H](NC(=O)c1cn(-c2ccc(F)cc2F)c2nc(N3CCC(O)C3=O)ccc2c1=O)C(F)(F)F (single isomer, unassigned) [Example 226] | 35
CN(C)c1ccc2c(=O)c(C(=O)NC34CC5CC(CC(C5)C3)C4)cn(-c3ccc(F)cc3F)c2n1 | 16

(a) CCC(NC(=O)c1cn(-c2ccc(F)cc2F)c2nc(N(C)CCF)ccc2c1=O)C(F)(F)F (racemic)
(b) CC(C)(C)C(NC(=O)c1cn(-c2c(F)cc(F)cc2F)c2nc(N3CCNC3=O)ccc2c1=O)C(F)(F)F (stereo in doubt)
Form: Entry with minimum Cooperativity (alpha factor) (choose one): a / b Answer by stating the label of the chosen item.
a

----------
Assay target: human M2 receptor (Homo sapiens)
Condition info: read-out: Efficiency, boosting of the acetylcholine effect at EC20 acetylcholine concentration; M2-GIRK1/4 reporter cells
Experimental endpoint: Emax (%)

C[C@H](NC(=O)c1cn(-c2c(F)cc(F)cc2Cl)c2nc(N3CC4CC4(O)C3)ccc2c1=O)C(F)(F)F (stereo partly shown) | 94
O=C(Nc1c(Cl)cccc1Cl)c1cn(-c2c(F)cc(F)cc2F)c2nc(N3C[C@@H](O)[C@H](O)C3)ccc2c1=O | 95.5
C[C@H]1CN(c2ccc3c(=O)c(C(=O)N[C@@H](C4CC4)C(F)(F)F)cn(-c4c(F)cc(F)cc4F)c3n2)C(=O)N1 | 91
CC(C)C(NC(=O)c1cn(-c2c(F)cc(F)cc2F)c2nc(N3C[C@@H](O)[C@H](O)C3)ccc2c1=O)C(F)(F)F (single isomer, unassigned) [Example 553] | 97.5
CC[C@@H](NC(=O)c1cn(-c2c(Cl)cc(F)cc2Cl)c2nc(N3CCNC3=O)ccc2c1=O)C(F)(F)F | 94
CC[C@@H](NC(=O)c1cn(-c2ccc(F)cc2F)c2nc(N3C(=O)C(C)(C)C(O)C3C)ccc2c1=O)C(F)(F)F (stereo partly shown) | 85.3
O=C(NC12CC(C1)C2)c1cn(-c2c(F)cc(F)cc2F)c2nc(N3CCNC3=O)ccc2c1=O | 86.5
CC[C@@H](NC(=O)c1cn(-c2c(Cl)cc(F)cc2Cl)c2nc(N3C[C@@H](O)[C@H](O)C3)ccc2c1=O)C(F)(F)F | 92
NC(=O)[C@@H]1CN(c2ccc3c(=O)c(C(=O)N[C@@H](C4CC4)C(F)(F)F)cn(-c4c(F)cc(F)cc4F)c3n2)C(=O)O1 | 100
O=C(N[C@@H](C1CC1)C(F)(F)F)c1cn(-c2c(F)cc(F)cc2F)c2nc(N3CC(O)C4(CC4)C3)ccc2c1=O (mixture of isomers) [Example 600] | 96.9
C[C@H](NC(=O)c1cn(-c2c(F)cc(F)cc2Cl)c2nc(N3CCNC3=O)ccc2c1=O)C(F)(F)F | 91.5
O=C(N[C@@H](C1CC1)C(F)(F)F)c1cn(-c2c(F)cc(F)cc2Cl)c2nc(N3C[C@@H](O)[C@H](O)C3)ccc2c1=O (single isomer, unassigned) [Example 547] | 90
CC[C@H](NC(=O)c1cn(-c2c(F)cc(F)cc2Cl)c2nc(N3CCC(C)C3=O)ccc2c1=O)C(F)(F)F (mixture of isomers) | 79
